Values compiled from patent US20100267561A1.

Tested on: winter barley (Hordeum vulgare)
MEASUREMENT_PROTOCOL: Test B postemergence plant response
Type: in vivo
STUDY_CONDITIONS: Postemergence, 16 g ai/ha; scale 0 to 100, 0 no effect, 100 complete control
Description: At the same time, plants selected from these crop and weed species and also winter barley (Hordeum vulgare), canarygrass (Phalaris minor), chickweed (Stellaria media) and windgrass (Apera spica-venti) were treated with postemergence applications of some of the test chemicals formulated in the same manner. Plants ranged in height from 2 to 18 cm (1- to 4-leaf stage) for postemergence treatments. […]
Property: Plant response rating, Barley; scope: individual molecules
Just the number, please, no unit attached.

Consider the following illustrative entries.
Cc1nn(C)c(=O)c(-n2nc(-c3ccc(Cl)cc3)cc2Cl)c1O | 0
Cc1cc(-c2ccc(Cl)cc2)nn1-c1c(OS(=O)(=O)c2ccccc2)cnn(C)c1=O | 0

q: Lab request: please report Plant response rating, Barley under test system winter barley (Hordeum vulgare) for Cn1ncc(O)c(-n2nc(-c3ccc(Cl)cc3)cc2C2CC2)c1=O
a: 5

q: What would you report for Cc1cc(-c2ccc(Cl)cc2)nn1-c1c(OC(=O)CC(C)C)cnn(C)c1=O ?
a: 0

q: What would you report for Cc1cc(-c2ccc(Cl)cc2)nn1-c1c(OC(=O)c2cccc(Cl)c2)cnn(C)c1=O ?
a: 0

q: What would you report for CCc1cc(-c2ccc(C(F)(F)F)cc2)nn1-c1c(O)c(OC)nn(C)c1=O ?
a: 98

* * *

Tested on: bermudagrass (Cynodon dactylon)
MEASUREMENT_PROTOCOL: Test B pre-/postemergence plant response
Type: in vivo
STUDY_CONDITIONS: Postemergence, 31 g ai/ha; scale 0 to 100, 0 no effect, 100 complete control
VALUE_KIND: Plant response rating, Bermudagrass
Just the number, please, no unit attached.

Consider the following illustrative entries.
CCc1cc(-c2ccc(C(F)(F)F)cc2)nn1-c1c(O)c(C)nn(C)c1=O | 65
Cc1cc(-c2ccc(Br)cc2)nn1-c1c(OC(=O)C2CC2)cnn(C)c1=O | 100
CCc1cc(-c2ccc(Cl)cc2)nn1-c1c(O)cnn(C)c1=O | 80

Let's switch to this compound now.
q: Lab request: please report Plant response rating, Bermudagrass under test system bermudagrass (Cynodon dactylon) for Cc1nn(C)c(=O)c(-n2nc(-c3ccc(Cl)cc3)cc2C)c1O
a: 70

* * *

Tested on: spring wheat (Triticum aestivum)
MEASUREMENT_PROTOCOL: Test C pre-/postemergence plant response
Format: in vivo
STUDY_CONDITIONS: Preemergence, 16 g ai/ha; scale 0 to 100 (0 no effect, 100 complete control)
Property: Plant response rating, Wheat, Spring; scope: individual molecules
Just the number, please, no unit attached.

Cc1cc(-c2ccc(Cl)cc2)nn1-c1c(OS(=O)(=O)c2ccccc2)cnn(C)c1=O | 20
Cc1nn(C)c(=O)c(-n2nc(-c3ccc(Cl)cc3)cc2C)c1O | 10
CCOC(=O)Oc1cnn(C)c(=O)c1-n1nc(-c2ccc(Cl)cc2)cc1C | 20

Let's switch to this molecule now.
q: Lab request: please report Plant response rating, Wheat, Spring under test system spring wheat (Triticum aestivum) for CCc1cc(-c2ccc(Cl)cc2)nn1-c1c(O)cnn(C)c1=O
a: 40

* * *

System: canarygrass (Phalaris minor)
MEASUREMENT_PROTOCOL: Test B postemergence plant response
Type: in vivo
STUDY_CONDITIONS: Postemergence, 16 g ai/ha; scale 0 to 100
Property: Plant response rating, Canarygrass; scope: individual molecules
Just the number, please, no unit attached.

Consider the following illustrative entries.
CCCC(=O)Oc1cnn(C)c(=O)c1-n1nc(-c2ccc(Cl)cc2)cc1C | 85
Cc1cc(-c2ccc(C(F)(F)F)c(F)c2)nn1-c1c(O)c(C(F)(F)F)nn(C)c1=O | 90
CCc1cc(-c2ccc(Cl)cc2)nn1-c1c(O)cnn(C)c1=O | 90

Let's switch to this molecule now.
q: # lookup: Plant response rating, Canarygrass of Cc1cc(-c2ccc(Cl)cc2)nn1-c1c(OC(=O)c2ccccc2Cl)cnn(C)c1=O
a: 0

* * *

Property: Plant response rating, Barnyardgrass; scope: individual compounds
Test system: barnyardgrass (Echinochloa crus-galli)
MEASUREMENT_PROTOCOL: Test B flooded paddy test plant response
Format: in vivo
STUDY_CONDITIONS: Flood (flooded paddy test), 62 g ai/ha; scale 0 to 100, 0 no effect, 100 complete control
Just the number, please, no unit attached.

q: Lab request: please report Plant response rating, Barnyardgrass under test system barnyardgrass (Echinochloa crus-galli) for Cc1cc(-c2ccc(Br)cc2)nn1-c1c(OC(=O)C2CC2)cnn(C)c1=O
a: 50

q: What would you report for CCc1cc(-c2ccc(Br)cc2)nn1-c1c(O)cnn(CC(F)(F)F)c1=O ?
a: 0

q: What would you report for CCc1cc(-c2ccc(C(F)(F)F)cc2)nn1-c1c(OC(=O)OC(C)C)cnn(C)c1=O ?
a: 30

q: What would you report for CCCc1cc(-c2ccc(C(F)(F)F)cc2)nn1-c1c(O)cnn(C)c1=O ?
a: 20

q: What would you report for Cc1nc(-c2ccc(Cl)cc2)nn1-c1c(O)cnn(C)c1=O ?
a: 0

q: What would you report for Cc1cc(-c2ccc(Cl)cc2)nn1-c1c(OC(=O)c2ccccc2Cl)cnn(C)c1=O ?
a: 95

q: What would you report for CCOC(=O)Oc1cnn(C)c(=O)c1-n1nc(-c2ccc(Cl)cc2)cc1C ?
a: 0

* * *

Test system: southern (S.) sandbur (Cenchrus echinatus)
MEASUREMENT_PROTOCOL: Test E pre-/postemergence plant response
Assay type: in vivo
STUDY_CONDITIONS: Postemergence, 8 g ai/ha, scale 0 to 100
Property: Plant response rating, Sandbur, S.; scope: individual compounds
Just the number, please, no unit attached.

CCCc1cc(-c2ccc(Cl)cc2)nn1-c1c(O)cnn(C)c1=O | 80

q: Lab request: please report Plant response rating, Sandbur, S. under test system southern (S.) sandbur (Cenchrus echinatus) for CCc1cc(-c2ccc(Cl)cc2)nn1-c1c(O)cnn(C)c1=O
a: 80

q: What would you report for CCc1cc(-c2ccc(C(F)(F)F)cc2)nn1-c1c(OC(=O)OC(C)C)cnn(C)c1=O ?
a: 98

q: What would you report for Cc1cc(-c2ccc(Cl)cc2)nn1-c1c(OC(=O)c2cccc(Cl)c2)cnn(C)c1=O ?
a: 60

* * *

Property: Plant response rating, Wheat; scope: individual molecules
Test system: wheat (Triticum aestivum)
MEASUREMENT_PROTOCOL: Test A pre-/postemergence plant response
Type: in vivo
STUDY_CONDITIONS: Preemergence, 31 g ai/ha; 0 to 100 scale, 0 is no effect, 100 is complete control
Just the number, please, no unit attached.

Consider the following illustrative entries.
Cc1cc(-c2ccc(Cl)cc2)nn1-c1c(OS(=O)(=O)C2CC2)cnn(C)c1=O [Compound 49] | 0
Cc1cc(-c2ccc(Cl)cc2)nn1-c1c(OC(=O)Oc2ccccc2)cnn(C)c1=O [Compound 54] | 0

q: # lookup: Plant response rating, Wheat of CCc1cc(-c2ccc(Cl)cc2)nn1-c1c(O)c(C)nn(C)c1=O [Compound 86]
a: 0

q: What would you report for Cc1cc(-c2ccc(C(F)(F)F)c(F)c2)nn1-c1c(O)c(C(F)(F)F)nn(C)c1=O [Compound 44] ?
a: 40

q: What would you report for CCc1cc(-c2ccc(Br)cc2)nn1-c1c(O)c(C)nn(C)c1=O [Compound 74] ?
a: 20

q: What would you report for Cc1cc(-c2ccc(Cl)cc2)nn1-c1c(OC(=O)c2cccc(Cl)c2)cnn(C)c1=O [Compound 32] ?
a: 0

q: What would you report for Cc1cc(-c2ccc(Cl)cc2)nn1-c1c(OS(=O)(=O)c2ccccc2)cnn(C)c1=O [Compound 35] ?
a: 20

q: What would you report for Cc1cc(-c2ccc(Cl)cc2)nn1-c1c(OC(=O)N(C)C)cnn(C)c1=O [Compound 64] ?
a: 0

* * *

System: goosegrass (Eleusine indica)
MEASUREMENT_PROTOCOL: Test B pre-/postemergence plant response
Assay type: in vivo
STUDY_CONDITIONS: Postemergence, 31 g ai/ha; scale 0 to 100
Property: Plant response rating, Goosegrass; scope: individual molecules
Just the number, please, no unit attached.

q: # lookup: Plant response rating, Goosegrass of Cc1cc(-c2ccc(Cl)cc2)nn1-c1c(OC(=O)Oc2ccccc2)cnn(C)c1=O
a: 70

q: What would you report for CCCC(=O)Oc1cnn(C)c(=O)c1-n1nc(-c2ccc(Cl)cc2)cc1C ?
a: 75

q: What would you report for CCCc1cc(-c2ccc(Cl)cc2)nn1-c1c(O)cnn(C)c1=O ?
a: 70

q: What would you report for Cc1nn(C)c(=O)c(-n2nc(-c3ccc(Cl)cc3)cc2Cl)c1O ?
a: 0

* * *

Tested on: corn (Zea mays)
MEASUREMENT_PROTOCOL: Test B pre-/postemergence plant response
Type: in vivo
STUDY_CONDITIONS: Preemergence, 62 g ai/ha; scale 0 to 100
Property: Plant response rating, Corn; scope: individual molecules
Just the number, please, no unit attached.

Cc1cc(-c2ccc(Cl)cc2)nn1-c1c(OC(=O)c2cccc(Cl)c2)cnn(C)c1=O | 95
Cc1cc(-c2ccc(C(F)(F)F)cc2)nn1-c1c(O)c(C(C)C)nn(C)c1=O | 85
Cc1cc(-c2ccc(Cl)cc2)nn1-c1c(OC(=O)c2cccs2)cnn(C)c1=O | 75

Let's switch to this molecule now.
q: # lookup: Plant response rating, Corn of CCOC(=O)Oc1cnn(C)c(=O)c1-n1nc(-c2ccc(Cl)cc2)cc1C
a: 60
